Measured IC50, RGA 2 accompanies every entry in the list below.
- target_desc: T1, human IL-11 (human, UniProt P20809 22-199)
- T1 sequence: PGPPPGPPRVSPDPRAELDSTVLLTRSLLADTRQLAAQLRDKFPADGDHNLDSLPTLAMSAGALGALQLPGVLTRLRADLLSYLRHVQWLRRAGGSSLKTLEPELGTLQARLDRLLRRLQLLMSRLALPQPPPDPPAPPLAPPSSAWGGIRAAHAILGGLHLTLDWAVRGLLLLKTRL
- measurement_protocol: cell-based or functional assay

These recorded examples may help you get a feel for the data.
binder	result
TPP-31308 (antibody, IgG4, V domains shown) VH: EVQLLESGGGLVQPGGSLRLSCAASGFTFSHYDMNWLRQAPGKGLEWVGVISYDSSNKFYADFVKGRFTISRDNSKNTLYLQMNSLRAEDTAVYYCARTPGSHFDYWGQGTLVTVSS VL: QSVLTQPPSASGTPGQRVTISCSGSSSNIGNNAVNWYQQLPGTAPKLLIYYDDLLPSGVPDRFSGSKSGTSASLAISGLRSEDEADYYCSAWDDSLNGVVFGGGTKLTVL	> 0.5 µM
TPP-31305 (antibody, IgG4, V domains shown) VH: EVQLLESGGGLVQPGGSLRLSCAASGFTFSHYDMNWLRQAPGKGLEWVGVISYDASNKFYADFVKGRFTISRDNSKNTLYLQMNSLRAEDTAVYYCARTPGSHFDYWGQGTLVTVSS VL: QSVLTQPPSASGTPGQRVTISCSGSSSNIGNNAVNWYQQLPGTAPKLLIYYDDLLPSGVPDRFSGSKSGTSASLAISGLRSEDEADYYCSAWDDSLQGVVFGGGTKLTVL	0.047 µM

Could you now look at the following binder, please?
Query string: Any idea what IC50, RGA 2 was measured for TPP-31299 (antibody, IgG4, V domains shown) VH: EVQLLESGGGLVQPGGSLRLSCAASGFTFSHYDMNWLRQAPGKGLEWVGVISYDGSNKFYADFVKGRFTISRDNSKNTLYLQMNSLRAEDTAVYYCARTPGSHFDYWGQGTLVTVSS VL: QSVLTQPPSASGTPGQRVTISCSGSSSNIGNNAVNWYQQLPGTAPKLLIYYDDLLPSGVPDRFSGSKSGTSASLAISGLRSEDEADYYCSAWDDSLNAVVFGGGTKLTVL ?
Result string: 0.114 µM
